test system: EKVX NSCLC; test: NCI-60 one-dose screen, 48 h (100 = growth as untreated, 0 = no growth, -100 = all killed); conditions: 10 µM unless noted
About 83,000 compounds went through this panel and 20% of them were active in at least one assay; those are over-represented in the sample as a whole.
Record Met whenever growth is at 50% or higher; record Not met when lower.

compound=C=C1C(=O)O[C@H]2[C@H]1CC/C(CNC(=O)c1cccc3ccccc13)=C\CC[C@@]1(C)O[C@@H]21 class_label=Met
compound=Cc1nc2sccn2c1-c1cn2ccsc2n1 class_label=Met
compound=Cc1cc2nc3c4cccc(O)c4n(CCN(C)C)c3nc2cc1C class_label="Not met"
compound="COc1cc2c(c(OC)c1OC)-c1ccc(NNC(=S)N(Cc3cccc(C[N+](Cc4cccc(CNC56CC7CC(CC(C7)C5)C6)c4)(Cc4cccc(CNC56CC7CC(CC(C7)C5)C6)c4)Cc4cccc(CN(C(=S)NNc5ccc6c(cc5=O)[C@@H](NC(C)=O)CCc5cc(OC)c(OC)c(OC)c5-6)C56CC7CC(CC(C7)C5)C6)c4)c3)C34CC5CC(CC(C5)C3)C4)c(=O)cc1[C@@H](NC(C)=O)CC2 (stereo partly specified)" class_label="Not met"
compound=CC(=O)OC[C@]12CC[C@@H](C(=O)CBr)[C@@H]1[C@H]1CC[C@@H]3[C@@]4(C)CC[C@H](OC(C)=O)C(C)(C)[C@@H]4CC[C@@]3(C)[C@]1(C)CC2 class_label=Met
compound=OCc1cnc2ccccc2c1NC1CCCCCC1 class_label=Met
compound=COc1ccc(N2CCN(c3ccc(NC4=C(Cl)C(=O)c5ncccc5C4=O)cc3)CC2)cc1 class_label=Met
compound=COc1ccc(Cc2cnc(NC(=O)c3ccc4c(c3)OCCO4)s2)cc1 class_label="Not met"
compound=CCOC(=O)Oc1c(OC)cc(C(=O)c2ccc(OC)c(OC(=O)CCl)c2OC)cc1OC class_label=Met
compound="COc1cc(/C=N/NC(=O)c2cnn3c2NC(c2ccccc2)C3)ccc1OCc1ccccc1 (stereo unspecified)" class_label="Not met"
compound=NC(=NCCCOc1ccc(F)cc1)Nc1ccc(Cl)cc1 class_label=Met
compound=O=[N+]([O-])c1ccc(NC(=S)N/N=C/c2cc3ccccc3n3nnnc23)cc1 class_label="Not met"
compound=O=C1c2ccccc2C(=O)c2c([N+](=O)[O-])ccc(Cl)c21 class_label=Met
compound=CN1CCN(C(=O)[C@]23CCC(C)(C)C[C@H]2C2=CC[C@@H]4[C@@]5(C)C/C(=C/c6ccncc6)C(=O)C(C)(C)[C@@H]5CC[C@@]4(C)[C@]2(C)CC3)CC1 class_label=Met
compound=Cn1c(-c2c(N)n(CCCN3CCOCC3)c3nc(C#N)c(C#N)nc23)nc2ccccc21 class_label=Met

---

Parameter growth: see the listing below.
system: KM12 colon; assay: NCI-60 one-dose screen, 48 h (100 = growth as untreated, 0 = no growth, -100 = all killed); conditions: 10 µM unless noted
Compounds without any hit were thinned out: in the full panel of roughly 83,000, 20% have a hit.
value_type: growth (%)

compound=C=C1C(=O)O[C@H]2[C@H]1CC/C(COC(=O)NCc1c[nH]c3ccc(Cl)cc13)=C\CC[C@@]1(C)O[C@@H]21 value_type=growth measured_number=13.8
compound=CC1(C)NCCC[C@]2(C)[C@H]3CC(=O)[C@H]4[C@@H]5C[C@](C)(CO)CC[C@]5(C)CC[C@@]4(C)[C@]3(C)CC[C@@H]12 value_type=growth measured_number=95.4
compound="Cc1ccc(C(=O)/C(=C\\c2ccc([N+](=O)[O-])cc2)S(=O)Cc2ccc(F)cc2)cc1 (stereo not drawn)" value_type=growth measured_number=19.4
compound=CN(C)CCn1c2ccc(Br)cc2c2nc3ccccc3nc21 value_type=growth measured_number=35
compound=O=C(Nc1cccc(C2=NCCN2)c1)c1ccc(-c2ccc(C(=O)Nc3cccc(C4=NCCN4)c3)cc2)cc1 value_type=growth measured_number=60.4
compound=COc1ccc(C(=O)c2nc3ccccc3n2CC(=O)c2ccc(Cl)cc2)cc1 value_type=growth measured_number=28.4
compound=NNC(=O)c1ccc(-n2nc(-c3ccccc3)c3ccccc32)cc1 value_type=growth measured_number=94.8
compound="O=C(c1nc2ccccc2[nH]1)C1C(c2ccc(Cl)cc2)C2CC3CCCC[C@H]3N2[C@@]12C(=O)Nc1cc(Cl)ccc12 (stereo partly drawn)" value_type=growth measured_number=45.8

---

test system: CCRF-CEM leukemia; test: NCI-60 one-dose screen, 48 h (100 = growth as untreated, 0 = no growth, -100 = all killed); settings: 10 µM unless noted
Compounds without any hit were thinned out: in the full panel of roughly 83,000, 20% have a hit. Activity calls are given as the source filed them. The calls were made as follows: active = growth percent below 10; inactive = the rest.
value_type: growth

smiles_entry=Cn1ccnc1C(=O)/C=C/c1ccc(CC(=O)Nc2ccc(F)cc2)cc1 value_type=growth result="6.85% (active)"
smiles_entry=N#CC(C#N)=Cc1cc2ccccc2nc1Oc1ccc(C(F)(F)F)cc1 value_type=growth result="0.288% (active)"
smiles_entry=CC(C)=CCC[C@](C)(O)[C@H]1CC[C@]2(C)[C@@H]1CC[C@@H]1[C@@]3(C)C/C(=C/c4ccccc4)C(=O)C(C)(C)[C@@H]3CC[C@]12C value_type=growth result="87.8% (inactive)"
smiles_entry=c1ccc(Cn2cnc3ccc(-c4nc(-c5ccc6c(c5)ncn6C5CCCCC5)cn5ccnc45)cc32)cc1 value_type=growth result="5.6% (active)"
smiles_entry=O=S(=O)(Nc1ccc(-n2cnc3cc(-c4ccc(O)cc4)ccc32)cc1)c1ccccc1 value_type=growth result="69.9% (inactive)"
smiles_entry=COc1ccc(-c2cnc3c(-c4cccc5cnccc45)cnn3c2)cc1 value_type=growth result="59.2% (inactive)"
smiles_entry=CC(=O)[C@@H]1CC[C@]2(C(N)=O)CC[C@]3(C)[C@H](CC[C@@H]4[C@@]5(C)CCCNC(C)(C)[C@@H]5CC[C@]43C)[C@@H]12 value_type=growth result="88.3% (inactive)"
smiles_entry=CNC(=O)c1cncc(Cn2nc(C)c(NC(=O)c3ccc(COc4ccc(C(F)(F)F)cc4C)cc3)c2C)c1 value_type=growth result="69% (inactive)"

---

Parameter growth: see the listing below.
system: MALME-3M melanoma; assay: NCI-60 one-dose screen, 48 h (100 = growth as untreated, 0 = no growth, -100 = all killed); details: 10 µM unless noted
Compounds without any hit were thinned out: in the full panel of roughly 83,000, 20% have a hit.
value_type: growth (%)

compound=O=C(/C=C/c1ccc(Cl)cc1)c1ccc(NC(=O)N2CCN(c3cc4c(cc3F)c(=O)c(C(=O)O)cn4C3CC3)CC2)cc1 target_or_system="MALME-3M melanoma" value_type=growth readout_units=% measured_number=103
compound=CCC(=O)Oc1ccc(/C(=C(\C)c2ccccc2)c2ccc(OCCN3CCCCC3)cc2)cc1 target_or_system="MALME-3M melanoma" value_type=growth readout_units=% measured_number=79
compound=CN1CCN(C(=O)[C@]23CCC(C)(C)C[C@H]2C2=CC[C@@H]4[C@@]5(C)C/C(=C/c6cccnc6)C(=O)C(C)(C)[C@@H]5CC[C@@]4(C)[C@]2(C)CC3)CC1 target_or_system="MALME-3M melanoma" value_type=growth readout_units=% measured_number=63.4
compound="Cc1ccc(C(=O)/C(=C\\c2ccc([N+](=O)[O-])cc2)S(=O)Cc2ccc(F)cc2)cc1 (centres undefined)" target_or_system="MALME-3M melanoma" value_type=growth readout_units=% measured_number=-3.22

---

Test system: SK-OV-3 ovarian
Test: NCI-60 one-dose screen, 48 h (100 = growth as untreated, 0 = no growth, -100 = all killed)
Details: 10 µM unless noted
Experimental: Growth inhibition of the SK-OV-3 human tumor cell line is measured as a screen for anti-cancer activity. Cells are grown in 96 well plates and exposed to the test compound for 48 hours. Compounds are tested at a single concentration, which is 10^-5 M for most compounds. The reported endpoint is percent growth (GI% or GIPRCNT), where numbers from 0 - 100% represent growth inhibition, and numbers from -100% - 0 represent cell death. For example, a value of 40 represents 60% growth inhibition. […]
The panel holds about 83,000 compounds, 20% with a hit somewhere; the sample as a whole holds those more often.
value_type: growth (%)

molecule="Cc1ccc(C(=O)/C(=C\\c2ccc([N+](=O)[O-])cc2)S(=O)Cc2ccc(F)cc2)cc1 (stereo not given)" value_type=growth measured_number=102
molecule=CC(=O)c1cc2c(N)c(C(=O)Nc3cccc4ccncc34)sc2nc1C value_type=growth measured_number=93.4
molecule=COc1ccc(C(=O)c2cc(C)c(OC)c(C)c2)c(OC)c1NC(C)=O value_type=growth measured_number=11
molecule=Nc1c(S(=O)(=O)O)cc2c3c(cccc13)C(=O)OC2=O value_type=growth measured_number=110
molecule=COc1cc(/C=C\c2cc(OC)c(OC)c(OC)c2)cc(N)c1OC value_type=growth measured_number=92.2
molecule=CCOC(=O)Nc1ccc(-c2ccc3c(c2)NC(=O)/C3=C\c2ccc[nH]2)cc1 value_type=growth measured_number=91
molecule=COc1cc2c(c(O)c1Cl)C(=O)c1c(O)cc(C[C@H](C)O)cc1[C@H]2[C@H]1c2cc(C[C@H](C)O)cc(O)c2C(=O)c2c1cc(OC)c(Cl)c2O value_type=growth measured_number=8.1
molecule=NS(=O)(=O)c1ccc(Cn2c(SCC(=O)N/N=C/c3ccccc3O)nc3ccccc3c2=O)cc1 value_type=growth measured_number=73
molecule=O=Cc1ccc(-c2cn3ccnc3c(-c3ccc4ncn(Cc5ccccc5)c4c3)n2)cc1 value_type=growth measured_number=94.9
molecule=Cc1ccc(-c2[nH][nH]c(=O)c2-c2nc3ccccc3s2)cc1 value_type=growth measured_number=104
molecule=CCOc1ccc(Nc2nc(-c3ccc4c(c3)NC(=O)CO4)cs2)cc1 value_type=growth measured_number=100
molecule=CCOC(=O)Oc1c(OC)cc(C(=O)c2ccc(OC)c(O)c2OC)cc1OC value_type=growth measured_number=31.6
molecule=CCN(CC)c1ccc(/C=N/NC(=O)CSc2nc3ccccc3c(=O)n2CCc2ccc(S(N)(=O)=O)cc2)c(O)c1 value_type=growth measured_number=41.1
molecule=Cn1c2ccccc2c2c3c(c4c5ccccc5n(C)c4c21)C(=O)OC3 value_type=growth measured_number=100
molecule=CCC(CC)NCC(C)(C)O value_type=growth measured_number=110
molecule=NS(=O)(=O)c1ccc(CCN2C(=O)c3cc(Cl)c(Cl)cc3C2=O)cc1 value_type=growth measured_number=113
molecule=O=C(Nc1ncc(Cc2cc(Cl)ccc2Cl)s1)c1cccs1 value_type=growth measured_number=72.1
molecule=CCOC(=O)c1cc(C#N)n2ccc3ccccc3c12 value_type=growth measured_number=36.5
molecule=O=C1Nc2cc(-c3ccc(NC(=O)C4CC4)cc3)ccc2/C1=C/c1ccc[nH]1 value_type=growth measured_number=105
molecule=CCN(c1ccccc1)S(=O)(=O)c1cc([N+](=O)[O-])ccc1Cl value_type=growth measured_number=55.3
molecule=COc1ccc(C(=O)Cn2c(C(=O)c3ccccc3)nc3ccccc32)cc1 value_type=growth measured_number=73
molecule=COc1cc(-c2cc(-c3ccc(N(C)C)cc3)nc(N3CCOCC3)c2C#N)cc(OC)c1OC value_type=growth measured_number=55.9
molecule=C=C1C(=O)O[C@H]2[C@H]1CC/C(CNC(=O)/C=C/c1cccc(OC)c1)=C\CC[C@@]1(C)O[C@@H]21 value_type=growth measured_number=86
molecule=N#C/C(=C\c1c(-c2ccccc2)[nH]c2ccccc12)C(=O)c1ccc(Cl)cc1 value_type=growth measured_number=53.3
molecule=CC1(C)NCCC[C@]2(C)[C@H]3CC[C@@H]4[C@H]5[C@H](C(=O)/C=C/c6ccco6)CC[C@]5(CO)CC[C@@]4(C)[C@]3(C)CC[C@@H]12 value_type=growth measured_number=93.1
molecule=COc1ccc(-c2cnc3c(-c4cccc5ncccc45)cnn3c2)cc1 value_type=growth measured_number=24.4
molecule=CC(=O)CCC(=O)OCc1cc(=O)c(O)co1 value_type=growth measured_number=128
molecule=N#Cc1cccc(-c2ccc3c(c2)NC(=O)/C3=C\c2ccc[nH]2)c1 value_type=growth measured_number=24.1
molecule=CNC(=O)c1cccc(Cn2nc(C)c(NC(=O)c3ccc(COc4ccc(C(F)(F)F)cc4C)cc3)c2C)n1 value_type=growth measured_number=74
molecule=COc1ccc(/C=C/c2nc(Nc3cccc(NC(C)=O)c3)c3ccccc3n2)cc1 value_type=growth measured_number=99.5
molecule=O=C(CCN1CCCC1)Nc1ccc2c(NCc3ccccc3)c3ccccc3nc2c1 value_type=growth measured_number=-10.9
molecule=O=C(Nc1ccc(Cl)cc1)c1cc(NCc2cc(O)ccc2O)ccc1O value_type=growth measured_number=103
molecule=CN1CCN(CCNc2nccc(-c3c(-c4cccc(O)c4)nc4sccn34)n2)S1(=O)=O value_type=growth measured_number=47.1
molecule="N#CC(C(=O)/C(=N/NC(=O)c1ccccc1O)C(C#N)c1ccccc1)c1ccccc1 (stereo not given)" value_type=growth measured_number=45.9
molecule=OCc1cnccc1NCCCCOc1ccc(Oc2ccccc2)cc1 value_type=growth measured_number=87.2
molecule=O=C(Nc1ccc(F)cc1)Nc1ccc(NC(=O)c2cc(Cl)nc3ccccc23)cc1 value_type=growth measured_number=59.8
molecule=CCc1c(Cl)nc(N)nc1Nc1ccc(C)c(C)c1 value_type=growth measured_number=109
molecule=O=C1Nc2ccccc2/C1=C\c1c(-c2ccc(F)cc2)nc2ccccn12 value_type=growth measured_number=62.7
molecule=N#C/C(=C\c1ccccn1)c1nc2cc(Cl)ccc2s1 value_type=growth measured_number=62.9
molecule="CC(=O)O[C@@H]1C2CCC3C(CC[C@@]4(C)C3CC[C@@H]4C(C)N(C)C)[C@@]2(C)CC[C@@H]1NC(=O)C=C(C)C (stereo not given in full)" value_type=growth measured_number=65.4
